Where these numbers come from: paper PMC8997913

test system: A-172 cells; test: MTT test, A-172; assay type: cell-based, human; conditions: Homo sapiens, A 172, 48 h, three independent experiments, read-out: IC50 [uM] ± SEM A-172
Quantity Name: IC50 (µM)
Give a bare numeral; the unit µM is implied.

For CCCCCCCCCCCCCCC(C(=O)O)C(O)(CC(=O)OC)C(=O)O (stereo not shown) the molecule record lists IC50 as 80.1

Value of IC50 reported for the molecule COc1cc(C)c(C(=O)Oc2cc(C)c(C(=O)O)c(O)c2C)c(O)c1C(=O)O is 84.9

Field IC50 (entry COC(=O)c1c(C)cc(OC(=O)c2c(C)cc(O)c(C=O)c2O)c(C)c1O ) reads 90.9
